B1: Lysozyme C, P61626 (parent)
chain: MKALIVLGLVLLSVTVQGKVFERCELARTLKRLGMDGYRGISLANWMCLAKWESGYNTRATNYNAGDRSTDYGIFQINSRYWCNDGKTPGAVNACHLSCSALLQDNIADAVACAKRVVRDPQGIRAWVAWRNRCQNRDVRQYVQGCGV

Variants of: B1
Settings: Homo sapiens; pH 2.7; Thermal; DSC; glycine 0.05 M; reversible: yes; structure 1LZ1; whole UniProt chain shown
REPORTED METRIC: change of melting temperature, mutant - wild type (higher = more stable) (°C)

{"columns": ["MUTANT", "EXPERIMENTAL RESULT"],
 "data": [
  ["H96G", -0.5],
  ["V118F", -6.5],
  ["N45L", 0.4],
  ["A114M", 0.1],
  ["Q76G", 5.7],
  ["R68G", 0.9],
  ["E53L", -1.8],
  ["V92S", -1.2],
  ["G55Q", -0.8],
  ["A50L", -0.3]
]}
